molecular target: CGRP receptor (Homo sapiens, UniProt O60894+Q16602); test: Cyclic AMP functional antagonism assay in SK-N-MC cells; assay type: cell-based; parameters: SK—N-MC cells that endogenously express the human CGRP receptor; endogenous in cells; host or cells: SK-N-MC cells; conditions: inhibition of 0.3 nM CGRP-induced cyclic AMP formation, 15 min pre-incubation, read-out: cAMP Function IC50
Sequence (Q16602 23-461): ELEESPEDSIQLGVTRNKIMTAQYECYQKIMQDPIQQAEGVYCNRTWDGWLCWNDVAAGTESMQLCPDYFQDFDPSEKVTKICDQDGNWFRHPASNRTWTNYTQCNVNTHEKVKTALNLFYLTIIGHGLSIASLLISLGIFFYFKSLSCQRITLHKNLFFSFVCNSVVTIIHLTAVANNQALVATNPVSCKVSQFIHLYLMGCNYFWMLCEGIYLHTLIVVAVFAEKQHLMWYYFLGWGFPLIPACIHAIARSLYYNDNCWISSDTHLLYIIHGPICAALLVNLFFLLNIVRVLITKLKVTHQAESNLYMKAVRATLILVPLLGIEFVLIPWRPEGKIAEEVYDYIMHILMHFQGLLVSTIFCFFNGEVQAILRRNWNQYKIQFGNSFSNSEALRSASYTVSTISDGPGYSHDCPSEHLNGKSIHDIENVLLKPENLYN
Sequence (O60894 27-148): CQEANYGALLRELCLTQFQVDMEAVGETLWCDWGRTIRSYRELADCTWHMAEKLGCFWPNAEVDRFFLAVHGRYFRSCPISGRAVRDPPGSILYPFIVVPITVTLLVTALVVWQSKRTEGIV
pIC50: −log10 of the molar value.
Recorded measurements of pIC50, one per entry

Sample answers from the record:
# value of pIC50, CGRP receptor (Homo sapiens, UniProt O60894+Q16602), item CC(C)(C)CN1Cc2c(cc(Cl)c3[nH]ncc23)C[C@@H](CC(=O)N2CCC(c3cc4ccccc4[nH]c3=O)CC2)C1=O [Example 43] = 8.00 to 10.00

# value of pIC50, CGRP receptor (Homo sapiens, UniProt O60894+Q16602), item CC(C)(C)CN1Cc2c(cc(Cl)c3[nH]ncc23)C[C@@H](CC(=O)N2CCC(n3cc(-c4ccccc4)[nH]c3=O)CC2)C1=O [Example 44] = 8.00 to 10.00

Next, consider the following molecule.
# value of pIC50, CGRP receptor (Homo sapiens, UniProt O60894+Q16602), item CC(C)(C)CN1Cc2c(cc(Cl)c3[nH]ncc23)C[C@@H](CC(=O)N2CCC(N3Cc4ccccc4CC3=O)CC2)C1=O [Example 41] = 8.00 to 10.00
